These data points were gathered from ChEMBL document CHEMBL6074684.

system: HGC-27; experiment: Antiproliferative activity against human HGC-27 cells assessed as inhibition of cell growth incubated for 72 hrs by MTT assay; format: functional, cell-based; conditions: HGC-27, 72 h
Attribute measured: pIC50
# reply with the number alone; pIC50 is -log10 of concentration in mol/L

Measured pIC50, CC(C)(C)OC(=O)NCC(=O)Oc1ccc2[nH]c3c(c2c1)CCN1C(=O)c2cc(F)ccc2N(c2cccc(F)c2)[C@@H]31 : 4.49

Briefly, pIC50 measured for CC(C)(C)OC(=O)N[C@@H](COCc1ccccc1)C(=O)Oc1ccc2[nH]c3c(c2c1)CCN1C(=O)c2cc(F)ccc2N(c2cccc(F)c2)[C@H]31 : 6.49

Quick note, pIC50 for CC(C)(C)OC(=O)N[C@@H](Cc1ccccc1)C(=O)Oc1ccc2[nH]c3c(c2c1)CCN1C(=O)c2cc(F)ccc2N(c2cccc(F)c2)[C@@H]31 landed at 4.64

---

Entries annotated with measured pIC50
tested on: RKO; assay: Antiproliferative activity against human RKO cells assessed as inhibition of cell growth incubated for 72 hrs by MTT assay; assay type: functional, cell-based
In plain terms, pIC50 is the concentration in mol/L turned into minus its base-10 logarithm.

Examples with answers:
CC(C)(C)OC(=O)NCC(=O)Oc1ccc2[nH]c3c(c2c1)CCN1C(=O)c2cc(F)ccc2N(c2cccc(F)c2)[C@H]31 :: 7.02
O=C1c2cc(F)ccc2N(c2cccc(F)c2)[C@H]2c3[nH]c4ccc(O)cc4c3CCN12 :: 7.00
CC(C)(C)OC(=O)N[C@@H](Cc1cnc[nH]1)C(=O)Oc1ccc2[nH]c3c(c2c1)CCN1C(=O)c2cc(F)ccc2N(c2cccc(F)c2)[C@@H]31 :: 4.79
CC(C)(C)OC(=O)N[C@@H](Cc1c[nH]c2ccccc12)C(=O)Oc1ccc2[nH]c3c(c2c1)CCN1C(=O)c2cc(F)ccc2N(c2cccc(F)c2)[C@@H]31 :: 4.80
CC(C)C[C@H](NC(=O)OC(C)(C)C)C(=O)Oc1ccc2[nH]c3c(c2c1)CCN1C(=O)c2cc(F)ccc2N(c2cccc(F)c2)[C@@H]31 :: 4.98

Consider O=C1c2cc(F)ccc2N(c2cccc(F)c2)C2c3[nH]c4ccc(O)cc4c3CCN12 (racemic) . Its measured pIC50 is 6.77

The compound listed as CC(C)[C@H](NC(=O)OC(C)(C)C)C(=O)Oc1ccc2[nH]c3c(c2c1)CCN1C(=O)c2cc(F)ccc2N(c2cccc(F)c2)[C@H]31 shows pIC50 equal to 6.70

Form field pIC50, entry CC(C)(C)OC(=O)N[C@@H](CCC(N)=O)C(=O)Oc1ccc2[nH]c3c(c2c1)CCN1C(=O)c2cc(F)ccc2N(c2cccc(F)c2)[C@@H]31 : 5.03

// recorded pIC50 for CSCC[C@H](NC(=O)OC(C)(C)C)C(=O)Oc1ccc2[nH]c3c(c2c1)CCN1C(=O)c2cc(F)ccc2N(c2cccc(F)c2)[C@@H]31 : 4.69

The compound CC(C)(C)OC(=O)NCC(=O)Oc1ccc2[nH]c3c(c2c1)CCN1C(=O)c2cc(F)ccc2N(c2cccc(F)c2)[C@@H]31 showed pIC50 equal to 4.41

Quick note, pIC50 for O=C1c2cc(F)ccc2N(c2cccc(F)c2)[C@@H]2c3[nH]c4ccc(O)cc4c3CCN12 landed at 6.89

Entry CC(C)(C)OC(=O)N[C@@H](Cc1ccccc1)C(=O)Oc1ccc2[nH]c3c(c2c1)CCN1C(=O)c2cc(F)ccc2N(c2cccc(F)c2)[C@@H]31 ; pIC50 = 4.71
